Where do the numbers come from? From ChEMBL document CHEMBL1240489.

- testSystem: UniProtKB P20309
- Sequence (P20309 whole entry, looked up): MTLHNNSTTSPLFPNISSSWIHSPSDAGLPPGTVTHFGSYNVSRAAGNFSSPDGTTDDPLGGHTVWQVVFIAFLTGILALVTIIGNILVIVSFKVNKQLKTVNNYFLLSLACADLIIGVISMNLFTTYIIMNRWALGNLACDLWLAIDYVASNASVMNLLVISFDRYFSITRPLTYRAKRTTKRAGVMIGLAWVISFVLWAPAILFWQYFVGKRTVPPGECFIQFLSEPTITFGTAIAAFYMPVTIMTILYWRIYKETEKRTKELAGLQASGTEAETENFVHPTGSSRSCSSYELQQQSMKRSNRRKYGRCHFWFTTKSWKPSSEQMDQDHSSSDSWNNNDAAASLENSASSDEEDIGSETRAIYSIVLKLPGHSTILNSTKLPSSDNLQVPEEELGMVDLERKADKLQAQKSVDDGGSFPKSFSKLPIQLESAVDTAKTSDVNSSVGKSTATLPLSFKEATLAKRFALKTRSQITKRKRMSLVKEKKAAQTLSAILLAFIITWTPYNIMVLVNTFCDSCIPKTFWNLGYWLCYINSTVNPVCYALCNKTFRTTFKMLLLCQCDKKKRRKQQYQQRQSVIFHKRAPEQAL
- procedureText: Agonist activity at human muscarinic M3 receptor expressed in BHK-21 cells assessed as increase of acetylcholine-induced calcium flux at 10 uM by FLIPR assay relative to acetylcholine
- Assay type: functional, cell-based
property: Emax (%)
Number in %, nothing else.

Worked examples, 4 compounds total:
Cc1ccccc1CN1CCC(N2CCC(n3c(=O)[nH]c4ccccc43)CC2)CC1 : 1
Clc1ccc2c(c1)N=C(N1CCNCC1)c1ccccc1N2 : 10
COc1ccc(CC(=O)NC2CCN(CCCN3C(=O)CCc4cc(F)c(F)cc43)CC2)cc1OC : 7
O=C(Cc1ccccc1)NC1CCN(CCCN2C(=O)COc3ccccc32)CC1 : 1

Could you now consider this next compound?
Task: Missing value: Emax, UniProtKB P20309, entry `COc1cccc(CC(=O)NC2CCN(CCCN3C(=O)COc4ccccc43)CC2)c1` . Fill in?
Result: 0

---

- procedureText: Drug level in C57/6J mouse brain at 20 mg/kg, sc after 30 mins
- Format: ADME, organism-based
- Design: dose 20 mg/kg, route subcutaneous
- measurementConditions: read-out: Drug uptake
property: concentration at 0.5 h
Answer shape: numeric part, then the unit.

Task: Give the measured concentration at 0.5 h of `O=C(Cc1ccccc1)NC1CCN(CCCN2C(=O)COc3ccccc32)CC1` .
Result: 440 ng/g

---

- procedureText: Binding affinity to PDE3 by enzyme assay
pKi: −log10 of the molar value.
property: pKi

Task: Which measured pKi value corresponds to `O=C(Cc1ccccc1)NC1CCN(CCCN2C(=O)COc3ccccc32)CC1` ?
Result: ≤ 6.00

---

- testSystem: Muscarinic acetylcholine receptor M1 (Homo sapiens, UniProt P11229)
- Sequence (P11229 whole entry): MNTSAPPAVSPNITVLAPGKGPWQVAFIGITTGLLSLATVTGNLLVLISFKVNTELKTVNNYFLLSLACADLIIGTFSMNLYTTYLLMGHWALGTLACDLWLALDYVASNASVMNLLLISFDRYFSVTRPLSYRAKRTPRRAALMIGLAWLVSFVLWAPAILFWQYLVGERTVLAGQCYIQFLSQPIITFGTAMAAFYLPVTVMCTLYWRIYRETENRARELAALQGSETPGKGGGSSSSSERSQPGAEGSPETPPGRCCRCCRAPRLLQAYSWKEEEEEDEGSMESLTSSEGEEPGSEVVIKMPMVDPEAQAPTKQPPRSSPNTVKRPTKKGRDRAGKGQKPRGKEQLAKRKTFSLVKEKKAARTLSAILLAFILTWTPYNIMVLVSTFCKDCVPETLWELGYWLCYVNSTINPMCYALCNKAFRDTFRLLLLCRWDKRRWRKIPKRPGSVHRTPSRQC
Below, each entry is listed with its recorded pEC50.
Friendly reminder that pEC50 comes from taking -log10 of the concentration in mol/L.

// known answers, use as guide
Clc1ccc2c(c1)N=C(N1CCNCC1)c1ccccc1N2 : 7.74
COc1ccc(CC(=O)NC2CCN(CCCN3C(=O)CCc4cc(F)c(F)cc43)CC2)cc1OC : 7.89
CCC(=O)NC1CCN(CCCN2C(=O)COc3cc(F)c(F)cc32)CC1 : 8.00

Task: Fill in the blank: the reported pEC50 of `COc1ccc2c(c1)N(CCCN1CCC(NC(=O)Cc3ccccc3)CC1)C(=O)CC2` is ____.
Result: 6.92

Task: Query `O=C(Cc1ccccc1)NC1CCN(CCCN2C(=O)CCc3cc(F)c(F)cc32)CC1` next
Result: 7.82

---

- testSystem: Alpha-1B adrenergic receptor (Homo sapiens, UniProt P35368)
- Sequence (P35368 whole entry): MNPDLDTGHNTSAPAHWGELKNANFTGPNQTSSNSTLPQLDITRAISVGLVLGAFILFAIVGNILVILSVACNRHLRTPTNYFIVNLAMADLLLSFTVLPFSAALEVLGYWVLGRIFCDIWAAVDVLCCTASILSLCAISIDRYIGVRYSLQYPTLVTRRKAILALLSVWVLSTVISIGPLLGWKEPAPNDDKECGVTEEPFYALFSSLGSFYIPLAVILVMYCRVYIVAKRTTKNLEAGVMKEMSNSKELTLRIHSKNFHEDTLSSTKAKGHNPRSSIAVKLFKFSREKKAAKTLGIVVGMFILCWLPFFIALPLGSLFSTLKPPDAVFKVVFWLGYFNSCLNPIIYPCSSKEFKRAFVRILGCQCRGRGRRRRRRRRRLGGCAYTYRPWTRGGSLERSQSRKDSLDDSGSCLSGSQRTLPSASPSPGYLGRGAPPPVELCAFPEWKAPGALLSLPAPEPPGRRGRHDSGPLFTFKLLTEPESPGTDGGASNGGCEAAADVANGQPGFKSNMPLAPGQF
Each record here notes measured Ki.
Just the number in nM, nothing appended.

O=C(Cc1ccccc1)NC1CCN(CCCN2C(=O)COc3ccccc32)CC1 : 910

Task: Ki for `Cc1ccccc1CN1CCC(N2CCC(n3c(=O)[nH]c4ccccc43)CC2)CC1` ?
Result: 19

---

Entries and their EC50
- testSystem: Muscarinic acetylcholine receptor M1 (Homo sapiens, UniProt P11229, Y381A)
- Sequence (P11229 whole entry Y381A): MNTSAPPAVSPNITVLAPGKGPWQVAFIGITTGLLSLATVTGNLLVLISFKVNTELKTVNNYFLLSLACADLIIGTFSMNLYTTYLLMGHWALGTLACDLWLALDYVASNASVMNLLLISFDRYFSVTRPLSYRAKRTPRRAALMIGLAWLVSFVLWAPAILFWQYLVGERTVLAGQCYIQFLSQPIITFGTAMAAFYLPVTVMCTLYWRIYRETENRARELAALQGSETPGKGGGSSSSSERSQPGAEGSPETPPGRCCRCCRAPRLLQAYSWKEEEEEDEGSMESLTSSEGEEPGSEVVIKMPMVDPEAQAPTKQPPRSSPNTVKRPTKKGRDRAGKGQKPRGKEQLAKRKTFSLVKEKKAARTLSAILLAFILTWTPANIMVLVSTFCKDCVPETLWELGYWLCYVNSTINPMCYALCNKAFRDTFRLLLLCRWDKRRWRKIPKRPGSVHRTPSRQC
Answers without a unit are incomplete; give the number and then its unit.

Clc1ccc2c(c1)N=C(N1CCNCC1)c1ccccc1N2 : 0.14 µM

# ---- query molecule ----
Task: Any idea what its EC50 is? The molecule is `O=C(Cc1ccccc1)NC1CCN(CCCN2C(=O)COc3ccccc32)CC1`
Result: 0.097 µM
